These measurements were taken from ChEMBL document CHEMBL1133535.

Biological target: Cyclin-dependent kinase 4/cyclin D (Homo sapiens)
Experiment: Inhibition of Cyclin-dependent kinase 4-cyclin D
Metric: pIC50
// field semantics: pIC50 = negative decimal log of concentration (mol/L)

Consider the reported pIC50 for these compounds:
# Smiles Repr, pIC50
measured = [
    ("CCn1c(=O)ccc2cnc(Nc3ccc(O)c(OC)c3)nc21", 5.74),
    ("CN1CCN(c2ccc(Nc3ncc4ccc(=O)n(-c5ccccc5)c4n3)cc2)CC1", 6.76),
]

Input: Field request: pIC50 | item: COCn1c(=O)ccc2cnc(Nc3ccccc3)nc21
Output: 5.38

* * *

Collected IC50 values appear next to each entry.
Molecular target: Cyclin-dependent kinase 4/cyclin D (Homo sapiens, UniProt P11802)
Test: Inhibition of Cyclin-dependent kinase 4-cyclin D
The reply should contain only the number, in nM.

Below are worked cases with known answers.
# Compound, Unit Text, Observed Value
data = [
    ("CN1CCN(c2ccc(Nc3ncc4ccc(=O)n(C5CCCC5)c4n3)cc2)CC1", "nM", 9),
    ("CCn1c(=O)ccc2cnc(NC(C)C)nc21", "nM", 4320),
    ("CC(C)CCn1c(=O)ccc2cnc(Nc3ccccc3)nc21", "nM", 159),
    ("CCN(CC)CCOc1ccc(Nc2ncc3ccc(=O)n(C4CC5CCC4C5)c3n2)cc1 (stereo not drawn)", "nM", 450),
    ("CCn1c(=O)ccc2cnc(Nc3ccc(N4CCCCC4)cc3)nc21", "nM", 300),
    ("CN1CCN(c2ccc(Nc3ncc4ccc(=O)n(C5CCCCC5)c4n3)cc2)CC1", "nM", 4),
]

Input: Form field - read-out: IC50; system: Cyclin-dependent kinase 4/cyclin D (Homo sapiens, UniProt P11802); submitted item: CCn1c(=O)ccc2cnc(Nc3ccc(-n4cccc4)cc3)nc21
Output: 2750

Input: Lab note: need IC50 with Cyclin-dependent kinase 4/cyclin D (Homo sapiens, UniProt P11802) for entry CN1CCN(c2ccc(Nc3ncc4ccc(=O)n(CCOCc5ccccc5)c4n3)cc2)CC1 , please look it up.
Output: 2100

Input: Notebook: pull reported IC50 for Cyclin-dependent kinase 4/cyclin D (Homo sapiens, UniProt P11802), entry O=c1ccc2cnc(Nc3ccc(N4CCC(CCCO)CC4)cc3)nc2n1C1CCCC1
Output: 34

Input: Given the entry CCn1c(=O)ccc2cnc(Nc3ccncc3)nc21 , what IC50 was observed with Cyclin-dependent kinase 4/cyclin D (Homo sapiens, UniProt P11802)?
Output: 1170

Input: So what IC50 did O=c1ccc2cnc(Nc3ccccc3)nc2n1-c1ccccc1 get with Cyclin-dependent kinase 4/cyclin D (Homo sapiens, UniProt P11802)?
Output: 1670

Input: Request body: readout IC50, system Cyclin-dependent kinase 4/cyclin D (Homo sapiens, UniProt P11802), query CCn1c(=O)ccc2cnc(Nc3ccccc3)nc21 . Return the value.
Output: 620

Input: Test system Cyclin-dependent kinase 4/cyclin D (Homo sapiens, UniProt P11802); read-out IC50; what value for CCn1c(=O)ccc2cnc(Nc3ccc(OCCN(C)C)cc3)nc21 ?
Output: 330

Input: Fill in the recorded IC50 for this compound, with Cyclin-dependent kinase 4/cyclin D (Homo sapiens, UniProt P11802) as test system: CCn1c(=O)ccc2cnc(Nc3ccc(N4CCC(CCCO)CC4)cc3)nc21
Output: 900

Input: // map CCN(CC)CCOc1ccc(Nc2ncc3ccc(=O)n(C4CCCC4)c3n2)cc1 to recorded IC50 (system: Cyclin-dependent kinase 4/cyclin D (Homo sapiens, UniProt P11802))
Output: 0.7

Input: Param readout= IC50; system= Cyclin-dependent kinase 4/cyclin D (Homo sapiens, UniProt P11802); entry= CCN(CC)c1ccc(Nc2ncc3ccc(=O)n(CC)c3n2)cc1 ; returns value.
Output: 1400

Input: Look up IC50 with Cyclin-dependent kinase 4/cyclin D (Homo sapiens, UniProt P11802) for this compound: CCn1c(=O)ccc2cnc(Nc3ccc(O)cc3)nc21
Output: 585

Input: Lookup: IC50 / Cyclin-dependent kinase 4/cyclin D (Homo sapiens, UniProt P11802) / CCN(CC)CCOc1ccc(Nc2ncc3ccc(=O)n(C4CCCCCC4)c3n2)cc1
Output: 4

Input: Any idea what IC50 came out for CN1CCN(c2ccc(Nc3ncc4ccc(=O)n(C5CC5)c4n3)cc2)CC1 on Cyclin-dependent kinase 4/cyclin D (Homo sapiens, UniProt P11802)?
Output: 140

Input: Any idea what IC50 came out for CCOCCn1c(=O)ccc2cnc(Nc3ccccc3)nc21 on Cyclin-dependent kinase 4/cyclin D (Homo sapiens, UniProt P11802)?
Output: 7800

Input: # query: IC50 | item CN1CCN(c2ccc(Nc3ncc4ccc(=O)n(C5CC6CCC5C6)c4n3)cc2)CC1 (stereo not drawn) | system: Cyclin-dependent kinase 4/cyclin D (Homo sapiens, UniProt P11802)
Output: 6

Input: Kindly state the measured IC50 obtained for COCCn1c(=O)ccc2cnc(Nc3ccccc3)nc21 with Cyclin-dependent kinase 4/cyclin D (Homo sapiens, UniProt P11802).
Output: 2860
